- protocol-notes: Single-dose oral pharmacokinetic study of ATB tablets in healthy human subjects (plasma and saliva, non-compartmental analysis)
- Assay type: in vivo
- condition: both sexes, human, plasma, po, 2400 mg, average of 8 healthy volunteers; single oral dose 2400 mg ATB; plasma; read-out: Cmax Plasma
measured-attribute: Cmax
Record the result as number plus unit.

Cmax in this record for O=C1CCC[C@@H]2[C@H]3CCCN4CCC[C@@H](CN12)[C@@H]34 [matrine] : 25.2 ng/mL

* * *

- protocol-notes: Single-dose oral pharmacokinetic study of ATB tablets in healthy human subjects (plasma and saliva, non-compartmental analysis)
- Format: in vivo
- condition: both sexes, human, saliva, po, 2400 mg, average of 8 healthy volunteers; single oral dose 2400 mg ATB; saliva; read-out: Tmax Saliva
measured-attribute: Tmax (h)
Express your answer in h, writing the number without its unit.

Field Tmax (entry `O=C1CCC[C@@H]2[C@H]3CCCN4CCC[C@@H](CN12)[C@@H]34` ) reads 1.5

* * *

- protocol-notes: Single-dose oral pharmacokinetic study of ATB tablets in healthy human subjects (plasma and saliva, non-compartmental analysis)
- Type: in vivo
- condition: both sexes, human, plasma, po, 2.6 mg, plasma; 2.6 mg Matr p.o. (8 ATB tablets); read-out: AUC0-T Healthy Volunteers Observed
- Experimental: In addition, in vivo correlation between plasma and saliva concentrations was determined as the secondary outcome. The ratio of drug concentration in plasma and saliva were calculated using Equations (1) and (2). (1) RCmax=Cmax saliva/Cmax plasma (2) RAUC=AUC0–24 saliva/AUC0–24 plasma […] S2.1. Human Pharmacokinetic Study Design The study was conducted in two phases. Two self-volunteered subjects participated in the study […] Participants refrained from consumption of […]
measured-attribute: AUC(0-t) (ng·h/mL)
Give the quantity in ng·h/mL, number only.

// recorded AUC(0-t) for `O=C1CCC[C@@H]2[C@H]3CCCN4CCC[C@@H](CN12)[C@@H]34` : 278

* * *

- protocol-notes: Single-dose oral pharmacokinetic study of ATB tablets in healthy human subjects (plasma and saliva, non-compartmental analysis)
- Type: in vivo
- condition: both sexes, human, plasma, po, 2400 mg, average of 8 healthy volunteers; single oral dose 2400 mg ATB; plasma; read-out: Tmax Plasma
measured-attribute: Tmax (h)
Report the value in h with no unit label.

Lab note: `O=C1CCC[C@@H]2[C@H]3CCCN4CCC[C@@H](CN12)[C@@H]34` gave Tmax of 2

* * *

- protocol-notes: Single-dose oral pharmacokinetic study of ATB tablets in healthy human subjects (plasma and saliva, non-compartmental analysis)
- Type: in vivo
- condition: both sexes, human, saliva and plasma, po, 2400 mg, average of 8 healthy volunteers; single oral dose 2400 mg ATB; read-out: Cmax Saliva/Plasma Ratio
- Method: In addition, in vivo correlation between plasma and saliva concentrations was determined as the secondary outcome. The ratio of drug concentration in plasma and saliva were calculated using Equations (1) and (2). (1) RCmax=Cmax saliva/Cmax plasma (2) RAUC=AUC0–24 saliva/AUC0–24 plasma […] S2.1. Human Pharmacokinetic Study Design The study was conducted in two phases. Two self-volunteered subjects participated in the study […] Participants refrained from consumption of […]
measured-attribute: Kp
Would you mind answering with just the numeric figure?

# Kp (molecule: `O=C1CCC[C@@H]2[C@H]3CCCN4CCC[C@@H](CN12)[C@@H]34` ) is 6.4
